Tested on: EU-1
Test: WST cytotoxicity assay, cancer cell EU-1
Format: cell-based, human
Conditions: Homo sapiens, EU-1, EU-1; no other cell line named in the cell; read-out: Cancer cell (EU-1) cytotoxicity IC50
Value type: log10 of IC50 (log10 of the value in µM)
Kindly note that the scale is log10 and the underlying IC50 is in µM.

Cc1ccc(N(C)S(=O)(=O)c2ccc3c(c2)[C@H]2OCC[C@H]2[C@H](c2ccc(C(=O)C(C)C)cc2)N3)cc1C (stereo in doubt) :: 0.20
O=S(=O)(Nc1ccc(Br)c(Br)c1)c1ccc2c(c1)[C@H]1OCC[C@H]1[C@H](C1CCCCC1)N2 :: 0.71
CC(=O)c1cccc(NS(=O)(=O)c2ccc3c(c2)C(=O)CC(c2cccc(C(C)=O)c2)N3)c1 (centres unmarked) :: -0.74
COc1cc(NS(=O)(=O)c2ccc3c(c2)C(=O)CC(c2cccc(C(C)=O)c2)N3)ccc1C (centres unmarked) :: -0.15
O=S(=O)(Nc1ccc(Cl)c(Cl)c1)c1ccc2nc(C3CCCCC3)ccc2c1 :: 0.49

Q: What does the record list as log10 of IC50 for CC(C)C(=O)c1ccc(C2Nc3ccc(S(=O)(=O)Nc4ccc5c(c4)CCO5)cc3[C@H]3OCC[C@@H]23)cc1 (some centres unmarked) ?
Result: -0.52

Q: What does the record list as log10 of IC50 for CN(C)c1cccc(NS(=O)(=O)c2ccc3c(c2)[C@H]2OCC[C@H]2[C@H](C2CCCCC2)N3)c1 ?
Result: 0.60

Q: What does the record list as log10 of IC50 for Cc1ccc(NS(=O)(=O)c2ccc3c(c2)C2[C@@H](CCN2C(=O)OC(C)(C)C)C(c2ccc(S(C)(=O)=O)cc2)N3)cc1C (some centres unmarked) ?
Result: 1.30

Q: What does the record list as log10 of IC50 for CC(=O)c1ccc([C@@H]2CC(O)c3cc(S(=O)(=O)Nc4ccc(C)c(C)c4)ccc3N2)cc1 (some centres unmarked) ?
Result: 0.32

Q: What does the record list as log10 of IC50 for CC(C)C(=O)c1ccc(C2Nc3ccc(S(=O)(=O)Nc4ccc(Cl)c(Cl)c4)cc3[C@H]3OCC[C@@H]23)cc1 (some centres unmarked) ?
Result: 0.75

Q: What does the record list as log10 of IC50 for CC(=O)c1cccc(S(=O)(=O)Nc2ccc3c(c2)[C@H]2OCC[C@H]2C(c2ccc(C(=O)C(C)C)cc2)N3)c1 (some centres unmarked) ?
Result: 0.40
